meta.source: PubChem BioAssay

What z-score was measured for each of the following?
system-name: Luciferin 4-monooxygenase (Photinus pyralis) (UniProt P08659)
Sequence (P08659 whole entry, looked up): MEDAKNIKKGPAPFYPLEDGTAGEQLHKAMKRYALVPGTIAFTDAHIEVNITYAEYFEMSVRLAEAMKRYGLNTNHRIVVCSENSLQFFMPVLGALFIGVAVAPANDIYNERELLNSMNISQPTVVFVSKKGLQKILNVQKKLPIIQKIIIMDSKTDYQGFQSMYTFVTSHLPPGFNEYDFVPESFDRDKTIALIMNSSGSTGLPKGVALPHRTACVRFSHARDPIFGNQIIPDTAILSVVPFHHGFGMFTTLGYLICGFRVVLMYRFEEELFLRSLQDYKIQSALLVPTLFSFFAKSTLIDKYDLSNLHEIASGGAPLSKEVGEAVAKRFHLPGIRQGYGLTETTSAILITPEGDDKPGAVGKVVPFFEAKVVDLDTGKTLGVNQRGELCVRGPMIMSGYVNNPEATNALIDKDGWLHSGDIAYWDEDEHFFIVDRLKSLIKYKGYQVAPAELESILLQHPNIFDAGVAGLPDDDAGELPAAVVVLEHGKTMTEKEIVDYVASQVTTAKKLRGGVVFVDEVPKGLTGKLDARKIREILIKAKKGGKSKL
assay-remarks: inhibition of purified Photinus pyralis luciferase – biochemical, luminescence, purified enzyme, 2006 set, primary screen (AID 1141);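 note: cell-free assay with purified firefly luciferase at 100 ng per well in PBS; test concentration not given here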
conditions: purified firefly luciferase, SteadyGlo luminescence, 30 min; higher = more signal, called active from +8 up or from −8 down
Would you mind answering with just the numeric figure?

Recorded result, C=CCC(OC(C)=O)[C@@H]1[C@@H](N(Cc2ccc(-c3cccc(C(F)(F)F)c3)o2)C(=O)c2ccc(C)cc2)c2cc(OCCCO)ccc2N1C(=O)c1ccc2ccccc2n1 (some centres not stated) , z-score: -1.25

Looking up `O=C(NCc1ccccc1)[C@@H]1c2ccccc2C(=O)N(C2CCCCC2)[C@H]1c1ccc(CO)cc1` , I found its z-score recorded as -0.441

z-score reading for `C=CC[C@@]1(C(=O)NCCN2CCOCC2)N=C(c2ccc(OCCCO)cc2)O[C@@H]1c1ccccc1CN=[N+]=[N-]` : -3.74

Lookup result for O=C(NCC(O)CO)[C@]1(CCS(=O)(=O)c2ccccc2)N=C(c2ccc(OCCCO)cc2)O[C@@H]1c1ccccc1 (some centres not stated) ; measured z-score: 0.0334

The reported z-score of the compound `CC(C)(C)OC(=O)CC[C@@]1(C(N)=O)N=C(c2ccc(OCCCO)cc2)O[C@@H]1c1ccccc1N=[N+]=[N-]` was -10.5

The measured z-score associated with `CCCCCCC#C[Si](O[C@H](c1ccccc1)c1cn([C@H](C)c2ccccc2)nn1)(C(C)C)C(C)C` reads 0.425

The compound listed as `CC(C)C[C@@H]1NC(=O)[C@@H]2C[C@H](C(=O)NCCCCN(C)C)[C@H](c3ccc(O)cc3)N2C1=O` has a reported z-score of 0.36
